Each item that follows carries a reported mortality % 24, with TFNA-AM.
test system: Anopheles stephensi; experiment: Anopheles stephensi treated well plate contact test: knockdown and mortality; assay type: in vivo; settings: test compound 0.2 ppm plus 2 ppm TFNA-AM, after 24 hours
Respond numerically; units are % and should not be typed.

1) O=[N+]([O-])c1cc(C(F)(F)F)c(Cl)c([N+](=O)[O-])c1Nc1ncc(C(F)(F)F)cc1Cl :: 30

Field mortality % 24, with TFNA-AM (entry `CO/C=C(/C(=O)OC)c1ccccc1COc1cc(C(F)(F)F)nc(OC(C)C)n1` ) reads 60

Value of mortality % 24, with TFNA-AM reported for the compound CC(COc1ccc(Oc2ccccc2)cc1)Oc1ccccn1 (stereo not drawn) is 60

Ref: patent US20260206755A1
